- Tested on: ML-2
- protocolText: Cytotoxicity against human ML2 cells assessed as decrease in cell viability after 48 hrs by MTT assay
- Assay type: functional, cell-based
- conditions: ML-2, 48 h
metricName: IC50
State the value, then name its unit.

Reported IC50 for ML-2, given `Cc1cc(O)c(-c2ccc([C@@H](C)CN)cc2)c2c1[nH]c(=O)c1sccc12` ?
17.9 nM

Same question, `CC(=O)c1cnc2ccc(-c3cc(Cl)c(O)c(Cl)c3)nc2c1N[C@H]1CC[C@H](CN(C)C)CC1` this time
33.8 nM

* * *

- System: NCI-H2171
- protocolText: Cytotoxicity against human NCI-H2171 cells assessed as decrease in cell viability after 72 hrs by MTT assay
- Assay type: functional, cell-based
- conditions: NCI-H2171, 72 h
metricName: IC50 (nM)
Your answer should be a plain number; it is taken to be in nM.

IC50 for `CC(=O)c1cnc2ccc(-c3cc(Cl)c(O)c(Cl)c3)nc2c1N[C@H]1CC[C@H](CN(C)C)CC1` ?
4.7

* * *

Answer each item with its documented IC50.
- Tested on: Lu-99 cell line
- protocolText: Cytotoxicity against human LU99 cells assessed as decrease in cell viability after 72 hrs by CCK8 assay
- Format: functional, cell-based
- conditions: Lu-99, 72 h
Field format: number, assumed nM, no unit text.

Which value of IC50 has been reported for `Cc1cc(O)c(-c2ccc([C@@H](C)CN)cc2)c2c1[nH]c(=O)c1sccc12` in the records?
1.5

What do you have for `Cc1cc(O)c(-c2ccc([C@@H](C)CN(C)C)cc2)c2c1[nH]c(=O)c1sccc12` ?
7.6

* * *

- Tested on: SW626
- protocolText: Cytotoxicity against human SW626 cells assessed as decrease in cell viability after 72 hrs by CCK8 assay
- Assay type: functional, cell-based
- conditions: SW626, 72 h
metricName: pIC50
pIC50 here is simply -log10 of the concentration when that concentration is written in mol/L.

So what does the record say about pIC50 for `Cc1cc(O)c(-c2ccc([C@@H](C)CN)cc2)c2c1[nH]c(=O)c1sccc12` ?
8.03

* * *

- Test system: MIA PaCa-2
- protocolText: Cytotoxicity against human MIAPaCa2 cells assessed as decrease in cell viability after 72 hrs by CCK8 assay
- Assay type: functional, cell-based
- conditions: MIA PaCa-2, 72 h
Record form. Attribute: pIC50. Fill in for each entry.
In plain terms, pIC50 is the concentration in mol/L turned into minus its base-10 logarithm.

Look up pIC50 with MIA PaCa-2 for this molecule: `Cc1cc(O)c(-c2ccc([C@@H](C)CN)cc2)c2c1[nH]c(=O)c1sccc12`
8.28

Please answer likewise for `Cc1cc(O)c(-c2ccc([C@@H](C)CN(C)C)cc2)c2c1[nH]c(=O)c1sccc12`
7.52

* * *

- Test system: Daudi
- protocolText: Cytotoxicity against human Daudi cells assessed as decrease in cell viability after 72 hrs by CCK8 assay
- Format: functional, cell-based
Consider the following compounds; for each one, report its IC50.
Give just the number in nM; leave the unit off.

Dear colleague, I am looking for the recorded IC50 of the following compound: `Cc1cc(O)c(-c2ccc([C@@H](C)CN(C)C)cc2)c2c1[nH]c(=O)c1sccc12`
25

Try the compound `Cc1cc(O)c(-c2ccc([C@@H](C)CN)cc2)c2c1[nH]c(=O)c1sccc12`
3.7
